Provenance of the data: PubChem BioAssay AID720579

# Experiment Summary: qHTS for Stage-Specific Inhibitors of Vaccinia Orthopoxvirus: mCherry Reporter Primary qHTS; further: nearly all actives have a fitted effect of over 35% in size
# Study Conditions: Vaccinia virus mCherry reporter infection, fluorescence; series mostly up to 36.5 µM
Out of some 310,000 compounds screened, about 1,900 (0.61%) were called active. Not shown: some 8% with an inconclusive outcome. The call rests on the fitted dose curve; tested in A549 cells. The sample holds actives, similar compounds and a random draw of the others, so the mix is not that of the screen.
The reply should name one outcome from active, inactive

In: // return assay outcome for COC(=O)CC1C(C)(C)C(OC(C)=O)C2CC3=C4CC(=O)OC(c5ccoc5)[C@]4(C)CCC3[C@@]1(C)C2=O (some centres undefined)
Out: inactive

In: # lookup: test call for C=C1C([C@@]2(C)C(OC(C)=O)CC(=O)O[C@@](C)(COC(C)=O)C2CC(=O)OC)C(OC=O)C(OC(=O)C(O)C(C)CC)[C@]2(C)C(c3ccoc3)CC(=O)C12O (some centres undefined)
Out: active

In: Write down the call the test reported for this molecule. Item: CC(=O)N1CCc2c(sc(NC(=O)CCS(=O)(=O)c3ccc(C)cc3)c2C(N)=O)C1
Out: inactive

In: What did this assay record as the result for COc1ccc(-c2ccc(C(=O)NCCN3CCOCC3)c3occc23)c(C)c1 ?
Out: inactive

In: So what was the verdict on S=C(NCc1cccnc1)Nc1ccc(Cl)cc1Cl in this test?
Out: inactive

Others:
In: What did this assay record as the result for CC(=O)N1CCc2c(sc(NC(=O)CCS(=O)(=O)c3ccccc3)c2C#N)C1 ?
Out: active

In: Could you please tell me the result logged for CC(=O)/C(=N\Nc1ccc(Cl)cc1Cl)Sc1cccc2cccnc12 in this assay?
Out: active

In: // return assay outcome for OC(c1ccccc1)c1nc(-c2cnc3ccccc3c2)cs1 (centres undefined)
Out: inactive

In: So what was the verdict on Cc1ccc(SCc2c(C(=O)N/N=C/C3CC=CCC3)nnn2-c2nonc2N)cc1 (centres undefined) in this test?
Out: inactive

---

# Experiment Summary: qHTS for Stage-Specific Inhibitors of Vaccinia Orthopoxvirus: mCherry Reporter Primary qHTS; further: nearly all actives have a fitted effect of over 35% in size
# Study Conditions: Vaccinia virus mCherry reporter infection, fluorescence; series mostly up to 36.5 µM
About 1,900 (0.61%) of roughly 310,000 compounds were called active. Inconclusive results (about 8%) are left out. The call rests on the fitted dose curve; tested in A549 cells. What follows is part of a selection rich in actives, with near analogues and random picks from the rest.
Please answer using one outcome listed in t = active, f = inactive

Solved cases below.
In: What did this assay record as the result for CC1(C(=O)NS(=O)(=O)c2ccccc2)CCN1C(=O)C/C=C/c1ccccc1 (stereo not drawn) ?
Out: f

In: I'd appreciate the recorded outcome for CCN(CC)c1ccc(/C=C/c2c(C)cnc3ccc(C)cc23)cc1 from this test.
Out: f

In: Recorded call for CC(C)(C)NCC(O)COc1cccc2[nH]c(=O)[nH]c12 (stereo not drawn) ?
Out: f

In: I would be grateful if you could indicate the recorded call for CN(C)S(=O)(=O)c1cccc(NC(=O)COC(=O)c2cc(=O)[nH]c(=O)[nH]2)c1 .
Out: f

In: Please indicate how the test categorized COc1ccc(C(C)(C)C)cc1NC(=O)CN(C)C1=NS(=O)(=O)c2ccccc21 .
Out: f

New cases:
In: Name the outcome recorded for COc1cc(CNc2ncnc3c2ncn3[C@H]2CN(Cc3cccs3)C[C@@H](CO)O2)cc(OC)c1OC in the assay.
Out: f

In: What did the test return for [O-][n+]1onc2c1CCc1[nH]c(-c3ccccc3)nc1-2 ?
Out: t

In: What outcome does the record of this test show for O=C(C(=O)N1CCC(c2ccccc2)CC1)c1ccccc1 ?
Out: f

In: GET /call?item= CC(C)Nc1ncnc2c1ncn2[C@H]1CN(Cc2ccncc2)C[C@@H](CO)O1 returns the recorded outcome of this test.
Out: f

In: Lab log entry: CN(C)c1ccc(/C=C2\C=Cc3ccccc32)cc1Br — outcome as called in the assay?
Out: f

In: Tell me the recorded outcome of this test for CSCCC(C(=O)NC(C)(C)C)n1c(-c2ccccc2)nc2ccccc21 (stereo not drawn) .
Out: f

In: Hi, sorry to bother you, what did the test record for Brc1cccc[n+]1Cc1cccc(C[n+]2ccccc2Br)c1 ?
Out: f

In: Would you mind telling me which call this test gave Cc1[nH]c2ccccc2c1C(=O)c1cc([C@H](NC(=O)OC(C)(C)C)C(C)C)sc1N ?
Out: f

In: Lab log entry: COc1cccc(C(=O)Nc2nc3ccc(S(C)(=O)=O)cc3s2)c1 — outcome as called in the assay?
Out: f

In: Give the logged outcome of this assay for the following compound: CC1(C)CCSC(/C=C/c2ccccc2)=N1
Out: t

In: Name the outcome recorded for COC(=O)c1ccc2nc(-c3ccccc3)c(Cc3ccc(OC)cc3C)n2c1 in the assay.
Out: f

In: How was CC1(C(=O)O)CCN1C(=O)/C=C/c1ccccc1 (stereo not drawn) classified in this test?
Out: f

In: // outcome(item) with item = O=C(CO/N=C/c1ccccc1O)NNC(=O)c1ccccc1Cl
Out: f

In: Status in this test for Cc1cc(C(=O)CCC(=O)NNC(=O)c2ccccc2O)c(C)s1 ?
Out: f

In: I would be grateful if you could indicate the recorded call for O=C(c1cnn2c1NC(=C1CC1)C=C2C(F)F)N1CCc2ccccc2C1 .
Out: f

In: What call does the record list for Cc1ccc(Nc2nc(CSc3nnc(-c4ccncc4)n3-c3ccccc3C)cs2)cc1 ?
Out: t

In: # fetch the recorded call for SCc1nc2ccc(Cl)cc2[nH]1 here
Out: f

In: Outcome? N#Cc1ccc(C(C(=O)NCc2ccccc2)n2c(=O)c(-c3ccco3)nc3ccccc32)cc1 (stereo not drawn)
Out: f

In: Outcome? CCCCN(C=O)c1c(CC)nc2c(OCCC3CCCCC3)cccn12
Out: f

In: Called result for CCc1nc2c(OCc3ccccc3)cccn2c1N(C)C(=O)c1ccco1
Out: f

In: Write down the call the test reported for this compound. Item: COc1ccc(NS(=O)(=O)c2ccc(N3CCOCC3)c(NC(=O)c3ccccc3Br)c2)cc1
Out: f

In: How was CN(C)CCNC(=O)c1ccc(-c2cn3c(-c4ccc(Oc5ccccc5)cc4)cnc3cn2)cc1 classified in this test?
Out: f

In: Check the results log: what was the call for Cc1cc(Cl)ccc1-c1nc(NCCN(C)C)nc2ccsc12 ?
Out: f

In: Per the records of this test, what outcome belongs to CCOc1ccc(S(=O)(=O)Nc2ccc(OC)nc2)cc1 ?
Out: f
